# Tested on: A549
# assay.comment: Cytotoxicity against human A549 cells after 48 hrs by MTT assay
# Assay type: functional, cell-based
# experimental.setup: A549, 48 h
This listing pairs compounds with measured IC50.
The reply should contain only the number, in µM.

chemical.string	test.target	IC50 / µM
CCN(CC)c1ccc2cc(C(=O)c3ccc(N4CCN(S(=O)(=O)c5ccc([N+](=O)[O-])cc5)CC4)cc3)oc2c1	A549	24.4

Next:
GET /value?item= CCN(CC)c1ccc2cc(C(=O)c3ccc(N4CCN(C(C)=O)CC4)cc3)oc2c1 &field=IC50 returns 30.1

* * *

# System: HeLa
# assay.comment: Cytotoxicity against human HeLa cells after 48 hrs by MTT assay
# Format: functional, cell-based
property.label: pIC50
Would you please state pIC50, meaning minus log10 of the concentration in mol/L, as a bare number?

chemical.string	pIC50
CCN(CC)c1ccc2cc(C(=O)c3ccc(N4CCN(C(=O)c5ccc([N+](=O)[O-])c([N+](=O)[O-])c5)CC4)cc3)oc2c1	4.60
CCN(CC)c1ccc2cc(C(=O)c3ccc(N4CCN(S(=O)(=O)c5ccc(C)cc5)CC4)cc3)oc2c1	4.42
CCN(CC)c1ccc2cc(C(=O)c3ccc(N4CCN(C(=O)c5ccccc5Cl)CC4)cc3)oc2c1	6.47
CCOC(=O)N1CCN(c2ccc(C(=O)c3cc4ccc(N(CC)CC)cc4o3)cc2)CC1	4.69
CCN(CC)c1ccc2cc(C(=O)c3ccc(N4CCN(S(=O)(=O)c5ccc(Br)c(F)c5)CC4)cc3)oc2c1	4.68

Item: CCN(CC)c1ccc2cc(C(=O)c3ccc(N4CCN(C(C)=O)CC4)cc3)oc2c1 | pIC50: 5.29

pIC50 reading for CCN(CC)c1ccc2cc(C(=O)c3ccc(N4CCN(C(=O)c5cccc(C(F)(F)F)c5)CC4)cc3)oc2c1 : 6.40

So, CCN(CC)c1ccc2cc(C(=O)c3ccc(N4CCN(C(=O)c5ccc(Cl)c(Cl)c5)CC4)cc3)oc2c1 ? Its pIC50 was 4.82

CCN(CC)c1ccc2cc(C(=O)c3ccc(N4CCN(C(=O)c5ccccc5)CC4)cc3)oc2c1 has a reported pIC50 of 4.82

Value of measured pIC50 for the entry CCN(CC)c1ccc2cc(C(=O)c3ccc(N4CCN(C(=O)c5ccc(Br)cc5F)CC4)cc3)oc2c1 : 6.28

Value of measured pIC50 for the entry CCN(CC)c1ccc2cc(C(=O)c3ccc(N4CCN(C(=O)COc5ccc(Cl)cc5Cl)CC4)cc3)oc2c1 : 7.52

For record CCN(CC)c1ccc2cc(C(=O)c3ccc(N4CCN(S(=O)(=O)c5ccc(F)cc5)CC4)cc3)oc2c1 the listed pIC50 is 4.67

So for CCN(CC)c1ccc2cc(C(=O)c3ccc(N4CCN(S(=O)(=O)c5ccc(C(F)(F)F)cc5)CC4)cc3)oc2c1 , the logged pIC50 turned out to be 5.01

* * *

# Tested on: A549
# assay.comment: Cytotoxicity against human A549 cells after 48 hrs by MTT assay
# Type: functional, cell-based
# experimental.setup: A549, 48 h
property.label: IC50 (µM)
Provide the reading as a plain figure in µM.

These recorded examples may help you get a feel for the data.
chemical.string	obs.value
CCN(CC)c1ccc2cc(C(=O)c3ccc(N4CCN(C(=O)c5cccc(C(F)(F)F)c5)CC4)cc3)oc2c1	9.27
CCN(CC)c1ccc2cc(C(=O)c3ccc(N4CCN(S(=O)(=O)c5ccc(Br)c(F)c5)CC4)cc3)oc2c1	15.1
CCN(CC)c1ccc2cc(C(=O)c3ccc(N4CCN(C(=O)c5ccccc5Cl)CC4)cc3)oc2c1	6.11

The reported A549 IC50 of CCN(CC)c1ccc2cc(C(=O)c3ccc(N4CCN(S(=O)(=O)c5ccc(Br)cc5)CC4)cc3)oc2c1 is 34.3

* * *

# Tested on: A549
# assay.comment: Cytotoxicity against human A549 cells after 48 hrs by MTT assay
# Assay type: functional, cell-based
# experimental.setup: A549, 48 h
property.label: pIC50
For clarity, pIC50 is expressed as the negative log10 of concentration in mol/L.

Examples with answers:
chemical.string	pIC50
CCN(CC)c1ccc2cc(C(=O)c3ccc(N4CCN(S(=O)(=O)c5ccc(C(F)(F)F)cc5)CC4)cc3)oc2c1	4.96
CCN(CC)c1ccc2cc(C(=O)c3ccc(N4CCN(C(=O)c5ccc(Cl)c(Cl)c5)CC4)cc3)oc2c1	6.66
CCN(CC)c1ccc2cc(C(=O)c3ccc(N4CCN(C(=O)c5ccc(Br)cc5F)CC4)cc3)oc2c1	4.69
CCN(CC)c1ccc2cc(C(=O)c3ccc(N4CCN(C(=O)COc5ccc(Cl)cc5Cl)CC4)cc3)oc2c1	5.24

Could you now look at the following compound, please?
So, CCN(CC)c1ccc2cc(C(=O)c3ccc(N4CCN(S(=O)(=O)c5ccc(F)cc5)CC4)cc3)oc2c1 ? Its pIC50 was 4.79

* * *

# System: HeLa
# assay.comment: Cytotoxicity against human HeLa cells after 48 hrs by MTT assay
# Type: functional, cell-based
property.label: IC50

Recorded results for 2 molecules are shown here.
chemical.string	IC50
CCN(CC)c1ccc2cc(C(=O)c3ccc(N4CCN(S(=O)(=O)c5ccc(Br)cc5)CC4)cc3)oc2c1	> 40 µM
CCN(CC)c1ccc2cc(C(=O)c3ccc(N4CCN(S(=O)(=O)c5ccc([N+](=O)[O-])cc5)CC4)cc3)oc2c1	> 40 µM

Turning to the following molecule.
The measured IC50 associated with CCN(CC)c1ccc2cc(C(=O)c3ccc(N4CCN(S(C)(=O)=O)CC4)cc3)oc2c1 reads > 40 µM

* * *

Quick reference: IC50 of the listed items.
# Test system: A549
# assay.comment: Cytotoxicity against human A549 cells after 48 hrs by MTT assay
# Type: functional, cell-based
# experimental.setup: A549, 48 h

Guide cases for IC50, answers given:
chemical.string	IC50
CCN(CC)c1ccc2cc(C(=O)c3ccc(N4CCN(C(=O)c5ccc([N+](=O)[O-])c([N+](=O)[O-])c5)CC4)cc3)oc2c1	> 40 µM
CCN(CC)c1ccc2cc(C(=O)c3ccc(N4CCN(S(=O)(=O)c5ccc(C)cc5)CC4)cc3)oc2c1	> 40 µM

Recorded result, CCN(CC)c1ccc2cc(C(=O)c3ccc(N4CCN(C(=O)c5ccccc5)CC4)cc3)oc2c1 , IC50: > 40 µM
